From: patent US11918645B2

Each entry below carries its recorded binding score, HLA-DP4 (α1*01:03;β1*04:01).
tested on: HLA-DP4 (α1*01:03;β1*04:01); assay: ProImmune REVEAL MHC class II binding assay of long peptides; parameters: species or system human; details: percentage of the signal of the positive control peptide; positive binding score >=15%
Give the number; % is assumed, so skip it.

Solved entries (count: 3):
substance: NP151: unconjugated HBV long peptide, polymerase region 134-168 (PEHVVNHYFQTRHYLHTLWKAGILYKRETTRSASF; HBV CONSENSUS SEQUENCE)
units-label: %
recorded-result: 74.36

substance: NP753(K): unconjugated HBV long peptide, core KK + 738-770 (S to T at 743) + KKK (KKKEFGATVELLSFLPSDFFPSVRDLLDTASALYRKKK; HBV CONSENSUS SEQUENCE)
units-label: %
recorded-result: 0.65

substance: NP113: unconjugated HBV long peptide, polymerase region 96-130 of virtual HBV proteome (VGPLTVNEKRRLKLIMPARFYPNVTKYLPLDKGIK; HBV CONSENSUS SEQUENCE)
units-label: %
recorded-result: 33.51

Q) Reported binding score, HLA-DP4 (α1*01:03;β1*04:01), substance NP856(K): unconjugated HBV long peptide, core 839-873 + KKK (LTFGRETVLEYLVSFGVWIRTPPAYRPPNAPILSTKKK; HBV CONSENSUS SEQUENCE) : ____
A) 10.72

* * *

Each entry below carries its recorded Number of nonamers having a binding score >= 45%, HLA-B*3501.
Target: HLA-B*3501 (Homo sapiens, UniProt P01889, A329T/A93T/A95T/C349S/D201E/D98Y/E176V/E187L/E204Q/E69T/I218V/K202T/L119I/Q94N/R155S/R180L/S121R/S35A/S48A/T118I/V127L/V306I/V36M/Y140S/Y91F)
Assay: ProImmune REVEAL MHC class I binding assay of nonamers
Settings: score as % of positive control peptide
Source text: The number of HLA class I binding registers contained in each peptide may be determined by determining the ability of the peptide to bind to a range of frequently occurring HLA class I molecules. HLA class I binding may be measured using the ProImmune REVEAL® MHC-peptide Binding Assay (ProImmune Ltd, Oxford, UK). […]
// no unit string in output, number only

Solved entries (count: 5):
substance: NP277(K): unconjugated HBV long peptide, polymerase 260-293 + KKK (RVSWPKFAVPNLQSLTNLLSSNLSWLSLDVSAAFYHKKK; HBV CONSENSUS SEQUENCE)
recorded-result: 3

substance: NP753(K): unconjugated HBV long peptide, core KK + 738-770 (S to T at 743) + KKK (KKKEFGATVELLSFLPSDFFPSVRDLLDTASALYRKKK; HBV CONSENSUS SEQUENCE)
recorded-result: 1

substance: NP376: unconjugated HBV long peptide, polymerase 359-398 (C to S substitution at 393) (KLHLYSHPIILGFRKIPMGVGLSPFLLAQFTSAISSVVRR; HBV CONSENSUS SEQUENCE)
recorded-result: 6

substance: NP856(K): unconjugated HBV long peptide, core 839-873 + KKK (LTFGRETVLEYLVSFGVWIRTPPAYRPPNAPILSTKKK; HBV CONSENSUS SEQUENCE)
recorded-result: 0

substance: NP113: unconjugated HBV long peptide, polymerase region 96-130 of virtual HBV proteome (VGPLTVNEKRRLKLIMPARFYPNVTKYLPLDKGIK; HBV CONSENSUS SEQUENCE)
recorded-result: 2

# input for lookup
Q) Reported Number of nonamers having a binding score >= 45%, HLA-B*3501, substance NP151: unconjugated HBV long peptide, polymerase region 134-168 (PEHVVNHYFQTRHYLHTLWKAGILYKRETTRSASF; HBV CONSENSUS SEQUENCE) : ____
A) 0
